Origin of the recorded values: patent US9266964

molecular target: T1, wild type pKal catalytic domain (human, UniProt P03952 391-638, limits assumed); assay: Ki,app: enzyme inhibition, fluorescent substrate, 2 h pre-incubation at 30 C, tight-binding fit
T1 construct: domain: catalytic domain; The expression in Pichia pastoris with a His tag and IMAC purification is told of the mutants; also called WT cat; Domain; not shown: His tag fusion
T1 sequence (P03952 391-638 limits assumed): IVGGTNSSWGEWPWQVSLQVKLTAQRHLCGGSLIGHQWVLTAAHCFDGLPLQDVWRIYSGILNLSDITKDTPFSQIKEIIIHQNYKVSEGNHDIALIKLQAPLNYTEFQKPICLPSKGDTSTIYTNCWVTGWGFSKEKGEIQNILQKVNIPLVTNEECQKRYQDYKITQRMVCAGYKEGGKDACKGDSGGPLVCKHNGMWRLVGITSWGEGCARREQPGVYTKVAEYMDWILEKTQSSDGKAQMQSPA
Entries and their Ki values follow.
Only the number, expressed in pM, is required.

| binder | Ki [pM] |
| --- | --- |
| M29-D09 (Fab, V domains shown, also called 559A-M29-D09 (sFab); 559A-M0029-D09) VH: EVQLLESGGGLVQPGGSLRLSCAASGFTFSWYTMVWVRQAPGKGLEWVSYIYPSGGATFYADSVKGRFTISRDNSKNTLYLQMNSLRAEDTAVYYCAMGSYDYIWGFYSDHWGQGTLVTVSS VL: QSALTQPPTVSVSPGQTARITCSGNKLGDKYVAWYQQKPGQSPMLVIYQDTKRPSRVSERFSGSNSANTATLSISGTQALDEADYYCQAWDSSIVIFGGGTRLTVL | 240 |

Data request: Quick one: give measured Ki for M35-G04 (antibody, V domains shown, Only variable domains printed; also called 559A-M35-G04; 559A-M0035-G04) VH: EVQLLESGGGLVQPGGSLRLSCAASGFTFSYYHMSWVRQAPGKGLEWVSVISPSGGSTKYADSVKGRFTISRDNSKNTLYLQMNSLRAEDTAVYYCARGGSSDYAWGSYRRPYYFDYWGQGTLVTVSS VL: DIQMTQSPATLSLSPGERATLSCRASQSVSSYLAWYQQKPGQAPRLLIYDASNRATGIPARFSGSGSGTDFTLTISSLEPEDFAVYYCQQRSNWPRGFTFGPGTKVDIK
Data returned: 800

Data request: Quick one: give measured Ki for M06-D09 (antibody, V domains shown, Only variable domains printed; also called M6-D09; 559A-M06-D09) VH: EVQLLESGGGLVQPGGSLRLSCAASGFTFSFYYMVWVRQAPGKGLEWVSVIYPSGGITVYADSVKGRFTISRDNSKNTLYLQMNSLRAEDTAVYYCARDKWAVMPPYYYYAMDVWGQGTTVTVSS VL: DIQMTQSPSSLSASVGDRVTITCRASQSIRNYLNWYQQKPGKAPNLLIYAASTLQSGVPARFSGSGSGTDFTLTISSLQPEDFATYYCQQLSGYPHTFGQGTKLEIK
Data returned: 2500
